# target system: UniProtKB P00750
# Sequence (P00750 36-562): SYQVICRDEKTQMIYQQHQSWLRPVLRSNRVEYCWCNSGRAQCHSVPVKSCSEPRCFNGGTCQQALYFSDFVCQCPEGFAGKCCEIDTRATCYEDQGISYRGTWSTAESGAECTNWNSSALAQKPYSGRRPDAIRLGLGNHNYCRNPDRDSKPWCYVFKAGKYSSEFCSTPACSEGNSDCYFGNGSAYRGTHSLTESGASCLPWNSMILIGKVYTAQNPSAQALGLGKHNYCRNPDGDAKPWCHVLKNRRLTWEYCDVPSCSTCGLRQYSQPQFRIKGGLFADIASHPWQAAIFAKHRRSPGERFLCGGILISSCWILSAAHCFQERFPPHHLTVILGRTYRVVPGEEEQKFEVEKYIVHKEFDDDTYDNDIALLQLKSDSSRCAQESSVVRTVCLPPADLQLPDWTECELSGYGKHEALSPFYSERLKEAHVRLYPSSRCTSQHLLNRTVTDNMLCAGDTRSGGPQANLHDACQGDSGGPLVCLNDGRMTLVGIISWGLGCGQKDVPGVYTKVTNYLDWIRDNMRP
# protocol: inhibition of tPA, dissociation constant Ki
pKi: −log10 of the molar value. Where a name gives a salt, the structure may show the parent alone.
assay metric: pKi

molecule="Cl.Cl.N=C(N)c1cccc(C[C@H](NS(=O)(=O)c2ccc3ccccc3c2)C(=O)N2CCN(CCO)CC2)c1 [Compound 3, dihydrochloride]" qualifier== readout_number=3.72
molecule="Cc1c(C)c(S(=O)(=O)NC(Cc2cccc(C(=N)N)c2)C(=O)N2CCN(C(=O)N(C)C)CC2)c(C)c2c1OC(C)(C)CC2 (stereo not shown)" qualifier=< readout_number=3.00
molecule="COc1cc(C)c(S(=O)(=O)NC(Cc2cccc(C(=N)N)c2)C(=O)N2CCN(S(C)(=O)=O)CC2)c(C)c1C (stereo not shown)" qualifier=< readout_number=3.00
molecule="CS(=O)(=O)N1CCN(C(=O)[C@H](Cc2cccc(C(=N)N)c2)NS(=O)(=O)c2ccc3ccccc3c2)CC1.Cl [Compound 5, hydrochloride]" qualifier== readout_number=3.72
molecule="N=C(N)c1cccc(CC(NS(=O)(=O)c2ccc3ccccc3c2)C(=O)N2CCN(CCO)CC2)c1 (stereo not shown)" qualifier=< readout_number=3.00
molecule="Cc1c(C)c(S(=O)(=O)N[C@@H](Cc2cccc(C(=N)N)c2)C(=O)N2CCN(S(C)(=O)=O)CC2)c(C)c2c1OC(C)(C)CC2 [Compound 10, hydrochloride]" qualifier== readout_number=3.22
molecule="CC(=O)N1CCN(C(=O)[C@H](Cc2cccc(C(=N)N)c2)NS(=O)(=O)c2ccc3ccccc3c2)CC1.Cl [Compound 2, hydrochloride]" qualifier== readout_number=3.36
molecule="Cc1c(C)c(S(=O)(=O)NC(Cc2cccc(C(=N)N)c2)C(=O)N2CCN(S(C)(=O)=O)CC2)c(C)c2c1OC(C)(C)CC2 (stereo not shown)" qualifier=< readout_number=3.00
molecule="CCCCCC(=O)N1CCN(C(=O)C(Cc2cccc(C(=N)N)c2)NS(=O)(=O)c2ccc3ccccc3c2)CC1 (stereo not shown)" qualifier=< readout_number=3.00
molecule="CN(C)C(=O)N1CCN(C(=O)C(Cc2cccc(C(=N)N)c2)NS(=O)(=O)c2ccc3ccccc3c2)CC1 (stereo not shown)" qualifier=< readout_number=3.00
molecule="N=C(N)c1cccc(CC(NS(=O)(=O)c2ccc3ccccc3c2)C(=O)N2CCN(S(=O)(=O)c3ccc4ccccc4c3)CC2)c1 (stereo not shown)" qualifier=< readout_number=3.00
molecule="CCS(=O)(=O)N1CCN(C(=O)C(Cc2cccc(C(=N)N)c2)NS(=O)(=O)c2ccc3ccccc3c2)CC1 (stereo not shown)" qualifier== readout_number=3.09
molecule="CCOC(=O)N1CCN(C(=O)C(Cc2cccc(C(=N)N)c2)NS(=O)(=O)c2ccc3ccccc3c2)CC1 (racemic) [X, reference compound]" qualifier== readout_number=3.43

----------
# System: coagulation in rat plasma
# protocol: aPTT in rat plasma after rectal application
# Assay type: in vivo
# condition set: rectal 5 mg/kg, 30 min
Form field: Clotting time, aPTT (one value per entry).
assay metric: Clotting time, aPTT (s)

smiles_str=CN(C)C(=O)N1CCN(C(=O)[C@H](Cc2cccc(C(=N)N)c2)NS(=O)(=O)c2ccc3ccccc3c2)CC1 readout_number=34.5
smiles_str=CS(=O)(=O)N1CCN(C(=O)[C@H](Cc2cccc(C(=N)N)c2)NS(=O)(=O)c2ccc3ccccc3c2)CC1.Cl readout_number=34.5
smiles_str=Cl.Cl.N=C(N)c1cccc(C[C@H](NS(=O)(=O)c2ccc3ccccc3c2)C(=O)N2CCN(CCO)CC2)c1 readout_number=39.8
smiles_str=CC(=O)N1CCN(C(=O)[C@H](Cc2cccc(C(=N)N)c2)NS(=O)(=O)c2ccc3ccccc3c2)CC1.Cl readout_number=37
